IC50, human collagenase-3 catalytic domain enzyme (MMP13) (Homo sapiens, UniProt P45452): measured values
Property: IC50 (µM)

INSERT INTO assay_data (smiles_representation, property, measurement_unit, numeric_result) VALUES
  ('C=CCn1c(=O)c2cc(C(=O)NCc3ccc(OC)cc3)ccc2n(C)c1=O', 'IC50', 'µM', 0.014),
  ('Cn1c(=O)n(Cc2ccccc2)c(=O)c2cc(C(=O)OCc3ccncc3)ccc21', 'IC50', 'µM', 0.028),
  ('O=C(OCc1ccccc1)c1ccc2[nH]c(=O)n(Cc3ccccc3)c(=O)c2c1', 'IC50', 'µM', 0.75),
  ('O=C(OCc1ccncc1)c1ccc2[nH]c(=O)n(Cc3ccc4c(c3)OCO4)c(=O)c2c1', 'IC50', 'µM', 0.007);

###

Here the recorded melting point is given for each entry.
Property: melting point

INSERT INTO assay_data (compound, property, result) VALUES
  ('Cn1c(=O)n(Cc2ccc(Cl)cc2)c(=O)c2cc(C(=O)NCc3cccnc3)ccc21', 'melting point', '173 to 175 °C'),
  ('COc1ccc(CNC(=O)c2ccc3c(c2)c(=O)n(Cc2ccc(-c4noc(=O)[nH]4)cc2)c(=O)n3C)cc1', 'melting point', '305 °C'),
  ('Cn1c(=O)n(Cc2ccccc2)c(=O)c2cc([S+]([O-])Cc3ccccc3)ccc21 (stereo not drawn)', 'melting point', '182 to 183 °C'),
  ('Cn1c(=O)n(Cc2ccccc2)c(=O)c2cc(SCc3ccccc3)ccc21', 'melting point', '117 to 118 °C'),
  ('O=C(NCc1ccc2c(c1)OCO2)c1ccc2[nH]c(=O)n(Cc3ccc4c(c3)OCO4)c(=O)c2c1', 'melting point', '245.2 °C'),
  ('Cn1c(=O)n(Cc2ccccc2)c(=O)c2cc(C(=O)OC/C=C/c3cccnc3)ccc21', 'melting point', '184 °C');

###

// values below are reported melting point
Property: melting point

INSERT INTO assay_data (smiles_representation, result) VALUES
  ('COc1ccc(CNC(=O)c2ccc3c(c2)c(=O)n(Cc2ccc(C(=O)OCCN(C)C)c(OC)c2)c(=O)n3C)cc1', '130 °C'),
  ('COc1ccc(CNC(=O)c2ccc3c(c2)c(=O)n(Cc2ccc(C4(C(=O)O)CC4)cc2)c(=O)n3C)cc1', '179 to 181 °C'),
  ('Cn1c(=O)n(Cc2ccc(F)cc2)c(=O)c2cc(C(=O)NCc3cccnc3)ccc21', '166 to 168 °C'),
  ('COc1cc(CNC(=O)c2ccc3c(c2)c(=O)n(Cc2ccc(F)cc2)c(=O)n3C)ccn1', '174 to 175 °C'),
  ('COc1cccc(CNC(=O)c2ccc3c(c2)c(=O)n(Cc2ccc(Cl)cc2)c(=O)n3C)c1', '178 to 180 °C'),
  ('Cn1c(=O)n(Cc2ccccc2)c(=O)c2cc(C(=O)OC/C=C/c3ccncc3)ccc21', '147 °C'),
  ('Cn1c(=O)n(Cc2ccccc2)c(=O)c2cc(S(=O)(=O)Cc3ccccc3)ccc21', '173 to 175 °C'),
  ('COc1ccc(CNC(=O)c2ccc3c(c2)c(=O)n(Cc2ccc(C4(C(=O)OC(C)(C)C)CC4)cc2)c(=O)n3C)cc1', '148 to 149 °C');
